Hi there, I'd appreciate the recorded IC50 for every entry that follows.
biological target: RIPK2 enzyme (Homo sapiens, UniProt O43353); construct: purchased Carna 09-128; assay: RIPK2 inhibition (ADP-Glo Kinase Assay); type: biochemical; conditions: RIPK2 5 nM, ATP 150 μM, MBP substrate, read-out: RIPK2 IC50
Sequence (O43353 1-299 limits assumed): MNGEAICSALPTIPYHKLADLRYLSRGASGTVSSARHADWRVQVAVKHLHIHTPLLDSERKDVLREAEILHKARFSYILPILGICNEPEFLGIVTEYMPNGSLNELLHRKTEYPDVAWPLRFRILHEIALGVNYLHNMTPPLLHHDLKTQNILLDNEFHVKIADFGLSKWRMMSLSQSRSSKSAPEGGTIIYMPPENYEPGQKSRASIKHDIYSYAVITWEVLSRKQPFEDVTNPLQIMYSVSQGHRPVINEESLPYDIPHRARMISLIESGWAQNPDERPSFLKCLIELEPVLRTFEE

Example entries begin here.
>>> result("CN1CCC(Oc2ccc3ncnc(Oc4ccc(CC(=O)Nc5cnn(C(C)(C)C)c5)c(F)c4F)c3c2)CC1")
"< 2.5 nM"
>>> result("COc1cc2ncnc(Oc3cc(F)c(CC(=O)Nc4cnn(C(C)(C)C)c4)cc3C)c2cc1C(N)=O")
"< 2.5 nM"
>>> result("Cc1c(Oc2ccnc3ccc(C(=O)N4C[C@@H](C)N[C@@H](C)C4)cc23)ccc(CC(=O)Nc2cnn(C(C)(C)C)c2)c1F")
"< 2.5 nM"
>>> result("Cc1cc(CC(=O)Nc2cnn(C(C)(C)C)c2)ccc1Oc1ccnc2ccc(NS(C)(=O)=O)cc12")
"< 2.5 nM"
>>> result("Cc1cc(CC(=O)Nc2cnn(C(C)(C)C)c2)ccc1Oc1ccnc2ccc(OC3CCN(C4CC4)CC3)cc12")
"< 2.5 nM"

Give me IC50 for each of these compounds, listed below.
1. COc1cc2ncnc(Oc3ccc(CC(=O)Nc4cnn(C(C)(C)C)c4)c(F)c3)c2cc1S(=O)(=O)C(C)(C)C
2. Cc1c(Oc2ccnc3ccc(S(=O)(=O)C4COC4)cc23)ccc(CC(=O)Nc2cnn(C(C)(C)C)c2)c1F
3. Cc1cc(CC(=O)Nc2cnn(C(C)(C)C)c2)c(F)cc1Oc1ccnc2ccc(C(=O)N3C[C@H]4C[C@@H]3CN4)cc12

RESULT:
1: < 2.5 nM; 2: < 2.5 nM; 3: < 2.5 nM

Give me IC50 for each of these compounds, listed below.
1. CCS(=O)(=NC)c1ccc2nccc(Oc3ccc(CC(=O)Nc4cnn(C(C)(C)C)c4)c(F)c3)c2c1 (centres unmarked)
2. CC(C)(C)n1cc(NC(=O)Cc2ncc(Oc3ccnc4ccc(F)cc34)cn2)cn1
3. CNS(=O)(=O)c1ccc2nccc(Oc3ccc(CC(=O)Nc4cnn(C(C)(C)C)c4)c(F)c3C)c2c1
4. Cc1cc(CC(=O)Nc2cnn(C(C)(C)C)c2)ccc1Oc1ccnc2ccc(O[C@H]3C[C@H](N)C3)cc12
5. COCCS(=O)(=O)c1ccc2nccc(Oc3ccc(CC(=O)Nc4cnn(C(C)(C)C)c4)cc3C)c2c1
6. Cc1cc(CC(=O)Nc2cnn(C(C)(C)C)c2)cc(Cl)c1Oc1ccnc2ccc(C(N)=O)cc12

RESULT:
["4 nM", "61.9 nM", "< 2.5 nM", "< 2.5 nM", "< 2.5 nM", "< 2.5 nM"]

* * *

target: RIPK2 enzyme (Homo sapiens); construct: purchased Carna 09-128; test: RIPK2 inhibition (ADP-Glo Kinase Assay); assay type: biochemical; conditions: RIPK2 5 nM, ATP 150 μM, MBP substrate, read-out: RIPK2 IC50
pIC50: −log10 of the molar value.
observation.type: pIC50

Example entries begin here.
>>> result("Cc1cc(CC(=O)Nc2cnn(C(C)(C)C)c2)c(F)cc1Oc1ccnc2ccc(CN3CCNCC3)cc12")
"> 8.60"
>>> result("Cc1cc(CC(=O)Nc2cnn(C(C)(C)C)c2)c(F)cc1Oc1ccnc2ccc(C(=O)NC3CNC3)cc12")
"> 8.60"
>>> result("Cc1cc(CC(=O)Nc2cnn(C(C)(C)C)c2)ccc1Oc1ccnc2ccc(OC3CCNCC3)cc12")
"> 8.60"
>>> result("CN1CC[C@@H](Oc2ccc3ncnc(Oc4cnc(CC(=O)Nc5cnn(C(C)(C)C)c5)c(F)c4)c3c2)C1")
7.34
>>> result("Cc1cc(CC(=O)Nc2cc(C(C)(C)C)cnn2)ccc1Oc1ncnc2ccc(F)cc12")
7.61

Give me pIC50 for each of these compounds, listed below.
1. Cc1c(Oc2ccnc3ccc(C(=O)N[C@H]4C[C@H](O)C4)cc23)ccc(CC(=O)Nc2cnn(C(C)(C)C)c2)c1F
2. Cc1cc(CC(=O)Nc2cnn(C(C)(C)C)c2)ccc1Oc1ccnc2ccc(S(=O)(=O)N(C)CCO)cc12
3. Cc1cc(CC(=O)Nc2cnn(C(C)(C)C)c2)ccc1Oc1ccnc2ccc(O[C@H]3CC[C@H](N)CC3)cc12
4. Cc1c(Oc2ccnc3ccc(C(=O)NC4CC(C#N)C4)cc23)ccc(CC(=O)Nc2cnn(C(C)(C)C)c2)c1F (single isomer, unassigned) [Compound 404]

RESULT:
1. > 8.60
2. > 8.60
3. > 8.60
4. > 8.60

Give me pIC50 for each of these compounds, listed below.
1. CCN1CCC(Oc2ccc3nccc(Oc4ccc(CC(=O)Nc5cnn(C(C)(C)C)c5)cc4C)c3c2)CC1
2. CCS(=N)(=O)c1ccc2nccc(Oc3ccc(CC(=O)Nc4cnn(C(C)(C)C)c4)cc3C)c2c1 (single isomer, unassigned) [Compound 545]
3. [2H]C([2H])([2H])NC(=O)c1cc2c(Oc3cc(F)c(CC(=O)Nc4cnn(C(C)(C)C)c4)cc3C)ccnc2cc1F
4. COc1ccc2ncnc(Oc3cnc(CC(=O)Nc4cnn(C(C)(C)C)c4)c(Cl)c3)c2c1
5. COc1ccc2ncnc(Oc3ccc(CC(=O)Nc4cnn(C(C)(C)C)c4)c(F)c3)c2c1
6. Cc1cc(CC(=O)Nc2cnn(C(C)(C)C)c2)cc(F)c1Oc1ncnc2ccc(C(N)=O)cc12

RESULT:
["> 8.60", "> 8.60", "> 8.60", 7.36, 8.12, "> 8.60"]

Give me pIC50 for each of these compounds, listed below.
1. Cc1cc(CC(=O)Nc2cnn(C(C)(C)C)c2)ccc1Oc1ccnc2ccc(OC3CCNC(C)C3)cc12 (racemic) [Compound 220]
2. Cc1cc(CC(=O)Nc2cnn(C(C)(C)C)c2)ccc1Oc1ccnc2ccc(C(=O)N3CC(F)C3)cc12

RESULT:
1: > 8.60; 2: > 8.60

The reported measurements were obtained from patent US12624018B1.
